target-entity: Left-right determination factor 2 (Homo sapiens) (UniProt O00292)
Sequence (O00292 whole entry, looked up): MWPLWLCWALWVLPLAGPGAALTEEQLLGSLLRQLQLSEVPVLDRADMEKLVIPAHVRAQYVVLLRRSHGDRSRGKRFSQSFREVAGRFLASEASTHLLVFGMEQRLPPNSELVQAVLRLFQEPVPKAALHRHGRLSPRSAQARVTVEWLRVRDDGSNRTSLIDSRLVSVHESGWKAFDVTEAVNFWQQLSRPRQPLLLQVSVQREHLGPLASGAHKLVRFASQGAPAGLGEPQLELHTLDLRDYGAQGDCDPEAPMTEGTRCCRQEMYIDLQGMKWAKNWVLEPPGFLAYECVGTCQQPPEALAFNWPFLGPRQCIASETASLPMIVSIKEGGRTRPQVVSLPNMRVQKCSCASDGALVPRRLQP
assay-comment: small molecules binding LEFTY2 protein – biochemical, small-molecule microarray, 635 nm fluorescence scan, primary screen (AID 1110)
details: higher = more signal
Collected composite z-score values appear next to each entry.
value-type: composite z-score

>>> df
                                smiles_repr  obs_value
0    Oc1ccc2cc[n+](Cc3cc4c(cc3Br)OCO4)cc2c1     -0.929
1  C=C(COC)C(=O)CC[C@@H](OC(C)=O)c1cccc(OCCO)c1     -0.278
2  C[N+](C)(C)CCCCCCNC(=O)[C@@H]1C[C@@H]2C(=O)N3CCC[C@H]3C(=O)N2[C@@H]1c1ccc(O)cc1      0.994
3  COCCCNC(=O)[C@@]1(Sc2ccc(C)cc2)CC(=O)N(C2Cc3ccccc3C2)[C@@H]1c1ccc(CO)cc1      -1.15
